Recorded values, source patent US9090568B2.

I'd appreciate it if you could supply pEC50 values for the items below.
System: MDA-MB-436 cells
Test: Cell proliferation assay (MTS, 7 days)
Assay type: cell-based
Settings: Homo sapiens, 168 h; MDA-MB-436 cells, 7 days, MTS; read-out: MDA-MB-436 cells EC50
pEC50: −log10 of the molar value.

Below, each entry is followed by its recorded pEC50 result.
Cc1cc(C(=O)N2CCN(C(=O)c3cc(Cn4c(=O)[nH]c(=O)c5ccccc54)ccc3F)CC2)no1 < 8.00
O=C(c1cc(Cn2c(=O)[nH]c(=O)c3ccccc32)ccc1F)N1CCC(n2cccn2)CC1 4.00 to 6.00
O=C(c1cc(Cn2c(=O)[nH]c(=O)c3ccccc32)ccc1F)N1CC=C(c2ccc(F)cc2)CC1 4.00 to 6.00
Cc1cc(C(=O)N2CCN(C(=O)c3cc(Cn4c(=O)[nH]c(=O)c5ccccc54)ccc3F)CC2)on1 < 8.00
O=C(c1cc(Cn2c(=O)[nH]c(=O)c3ccccc32)ccc1F)N1CCC(OC(F)F)CC1 4.00 to 6.00
O=C(c1cc(Cn2c(=O)[nH]c(=O)c3ccccc32)ccc1F)N1CCCCC1 4.00 to 6.00

Okay, here is my list. What is pEC50 for each of these?
1. Cc1nc(C)c(C(=O)N2CCN(C(=O)c3cc(Cn4c(=O)[nH]c(=O)c5ccccc54)ccc3F)CC2)o1
2. O=C(c1cc(Cn2c(=O)[nH]c(=O)c3ccccc32)ccc1F)N1CCC(n2cc(Br)cn2)CC1

1. < 8.00
2. < 8.00

* * *

System: MDA-MB-436 cells
Experiment: Cell proliferation assay (MTS, 7 days)
Type: cell-based
Conditions: Homo sapiens, 168 h; MDA-MB-436 cells, 7 days, MTS; read-out: MDA-MB-436 cells EC50
readout-type: EC50

Below, each entry is followed by its recorded EC50 result.
compound	readout-type	measured-value
O=C(c1cc(Cn2c(=O)[nH]c(=O)c3ccccc32)ccc1F)N1CCN(C(=O)C2CCCO2)CC1 (stereo not shown)	EC50	> 10 nM
O=C(OC1CCCC1)N1CCN(C(=O)c2cc(Cn3c(=O)[nH]c(=O)c4ccccc43)ccc2F)CC1	EC50	> 10 nM
O=C(NC1CC1)C1CCN(C(=O)c2cc(Cn3c(=O)[nH]c(=O)c4ccccc43)ccc2F)CC1	EC50	1000 to 100000 nM

Please give the documented EC50 of `COC(=O)C1CCN(C(=O)c2cc(Cn3c(=O)[nH]c(=O)c4ccccc43)ccc2F)CC1`
1000 to 100000 nM

* * *

I'd appreciate it if you could supply pEC50 values for the items below.
Test system: MDA-MB-436 cells
Test: Cell proliferation assay (MTS, 7 days)
Type: cell-based
Details: Homo sapiens, 168 h; MDA-MB-436 cells, 7 days, MTS; read-out: MDA-MB-436 cells EC50
pEC50: −log10 of the molar value.

Below, each entry is followed by its recorded pEC50 result.
compound	pEC50
O=C(c1cc(Cn2c(=O)[nH]c(=O)c3ccccc32)ccc1F)N1Cc2nccnc2C1 [Example 26]	< 8.00
O=C(c1cc(Cn2c(=O)[nH]c(=O)c3ccccc32)ccc1F)N1CCN(c2ncccn2)CC1 [Example 28]	8.00 to 10.00

Okay, here is my list. What is pEC50 for each of these?
1. O=C(c1cc(Cn2c(=O)[nH]c(=O)c3ccccc32)ccc1Cl)N1CCN(C(=O)C2CC2)CC1 [Example 3]
2. O=C(c1cccc(Cn2c(=O)[nH]c(=O)c3ccccc32)c1)N1CCN(C(=O)C2CC2)CC1 [Example 2]
3. O=C(c1cc(Cn2c(=O)[nH]c(=O)c3ccccc32)ccc1F)N1CCC(Oc2ccccn2)CC1 [Example 12]
4. O=C(c1cc(Cn2c(=O)[nH]c(=O)c3ccccc32)ccc1F)N1Cc2cccc(F)c2C1 [Example 24]
5. O=C(c1cnco1)N1CCN(C(=O)c2cc(Cn3c(=O)[nH]c(=O)c4ccccc43)ccc2F)CC1 [Example 34]
6. Cc1cnc(C(=O)N2CCN(C(=O)c3cc(Cn4c(=O)[nH]c(=O)c5ccccc54)ccc3F)CC2)cn1 [Example 33]

4.00 to 6.00
4.00 to 6.00
8.00 to 10.00
< 8.00
< 8.00
< 8.00

* * *

pIC50: −log10 of the molar value.
Reported pIC50, PARP-1 (Homo sapiens).

Below, each entry is followed by its recorded pIC50 result.
compound	pIC50
CC1(C(=O)N2CCN(C(=O)c3cc(Cn4c(=O)[nH]c(=O)c5ccccc54)ccc3F)CC2)CCCN1 (stereo in doubt) [Example 40]	8.00 to 10.00
O=C(c1cc(Cn2c(=O)[nH]c(=O)c3ccccc32)ccc1Cl)N1CCN(C(=O)C2CC2)CC1 [Example 3]	8.00 to 10.00
O=C(c1cc(Cn2c(=O)[nH]c(=O)c3ccccc32)ccc1F)N1CCC(Oc2ccccn2)CC1 [Example 12]	8.00 to 10.00

Okay, here is my list. What is pIC50 for each of these?
1. O=C(c1cc(Cn2c(=O)[nH]c(=O)c3ccccc32)ccc1F)N1CCN(c2ncccn2)CC1 [Example 28]
2. O=C(c1cnccn1)N1CCN(C(=O)c2cc(Cn3c(=O)[nH]c(=O)c4ccccc43)ccc2F)CC1 [Example 32]

8.00 to 10.00
8.00 to 10.00

Okay, here is my list. What is pIC50 for each of these?
1. O=C(c1cc(Cn2c(=O)[nH]c(=O)c3ccccc32)ccc1F)N1CCC(ON=C2CCc3ccccc32)CC1 [Example 22]
2. O=C(c1cc(Cn2c(=O)[nH]c(=O)c3ccccc32)ccc1F)N1CCNCC1 [Example 30b]
3. Cc1cc(C(=O)N2CCN(C(=O)c3cc(Cn4c(=O)[nH]c(=O)c5ccccc54)ccc3F)CC2)no1 [Example 35]
4. O=C(OC1CCCC1)N1CCN(C(=O)c2cc(Cn3c(=O)[nH]c(=O)c4ccccc43)ccc2F)CC1 [Example 42]
5. O=C(c1cc(Cn2c(=O)[nH]c(=O)c3ccccc32)ccc1F)N1CCCCC1 [Example 4]
6. O=C(c1cc(Cn2c(=O)[nH]c(=O)c3ccccc32)ccc1F)N1CCN(C(=O)C2CCCO2)CC1 (centres unmarked) [Example 38]

["< 8.00", "8.00 to 10.00", "8.00 to 10.00", "8.00 to 10.00", "< 8.00", "8.00 to 10.00"]

* * *

I'd appreciate it if you could supply pIC50 values for the items below.
Molecular target: PARP-1 (Homo sapiens, UniProt P09874)
Sequence (P09874 whole entry): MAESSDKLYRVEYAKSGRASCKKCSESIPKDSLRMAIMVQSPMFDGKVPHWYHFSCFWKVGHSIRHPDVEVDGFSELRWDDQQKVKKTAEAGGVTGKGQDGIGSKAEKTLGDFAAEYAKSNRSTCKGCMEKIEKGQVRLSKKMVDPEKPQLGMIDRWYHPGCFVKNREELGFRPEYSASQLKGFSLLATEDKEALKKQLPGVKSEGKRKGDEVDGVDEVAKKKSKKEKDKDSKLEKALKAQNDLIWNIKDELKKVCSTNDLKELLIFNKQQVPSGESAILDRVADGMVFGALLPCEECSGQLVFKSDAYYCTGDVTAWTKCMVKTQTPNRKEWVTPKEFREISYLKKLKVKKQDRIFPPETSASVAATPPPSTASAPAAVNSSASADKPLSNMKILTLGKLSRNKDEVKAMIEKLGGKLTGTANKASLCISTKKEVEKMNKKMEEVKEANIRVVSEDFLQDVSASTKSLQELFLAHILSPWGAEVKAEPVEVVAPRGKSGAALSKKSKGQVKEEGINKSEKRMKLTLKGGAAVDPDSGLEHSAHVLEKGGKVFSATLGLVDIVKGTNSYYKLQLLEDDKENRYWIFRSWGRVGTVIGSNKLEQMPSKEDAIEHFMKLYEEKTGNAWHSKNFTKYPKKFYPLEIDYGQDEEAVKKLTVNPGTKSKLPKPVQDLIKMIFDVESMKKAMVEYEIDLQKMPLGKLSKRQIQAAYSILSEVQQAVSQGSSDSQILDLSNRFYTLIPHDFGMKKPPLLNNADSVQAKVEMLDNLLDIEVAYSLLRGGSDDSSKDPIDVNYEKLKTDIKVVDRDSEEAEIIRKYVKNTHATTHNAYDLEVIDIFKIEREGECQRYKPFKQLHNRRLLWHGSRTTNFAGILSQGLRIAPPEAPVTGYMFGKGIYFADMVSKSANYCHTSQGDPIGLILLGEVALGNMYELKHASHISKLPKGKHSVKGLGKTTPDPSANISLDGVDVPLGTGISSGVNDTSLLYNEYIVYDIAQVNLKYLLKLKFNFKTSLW
pIC50: −log10 of the molar value.

Below, each entry is followed by its recorded pIC50 result.
O=C(c1cc(Cn2c(=O)[nH]c(=O)c3ccccc32)ccc1F)N1CCN(C(=O)C2CC2)CC1 8.00 to 10.00
CCOC(=O)N1CCN(C(=O)c2cc(Cn3c(=O)[nH]c(=O)c4ccccc43)ccc2F)CC1 8.00 to 10.00
O=C(c1cnco1)N1CCN(C(=O)c2cc(Cn3c(=O)[nH]c(=O)c4ccccc43)ccc2F)CC1 8.00 to 10.00
O=C(c1cc(Cn2c(=O)[nH]c(=O)c3ccccc32)ccc1F)N1CCC(n2cccn2)CC1 8.00 to 10.00
CCNC(=O)OC1CCN(C(=O)c2cc(Cn3c(=O)[nH]c(=O)c4ccccc43)ccc2F)CC1 < 8.00
O=C(NC1CC1)C1CCN(C(=O)c2cc(Cn3c(=O)[nH]c(=O)c4ccccc43)ccc2F)CC1 < 8.00
O=C(c1cc(Cn2c(=O)[nH]c(=O)c3ccccc32)ccc1F)N1Cc2cccnc2C1 8.00 to 10.00

Please give the documented pIC50 of `COC(=O)C1CCN(C(=O)c2cc(Cn3c(=O)[nH]c(=O)c4ccccc43)ccc2F)CC1`
8.00 to 10.00

* * *

I'd appreciate it if you could supply half-life values for the items below.
Assay: Pharmacokinetic assay, intravenous and oral administration
Assay type: in vivo, Sprague-Dawley rats
Details: Sprague-Dawley, rat, plasma; after oral administrations in rats; read-out: t½

compound	readout-type	measured-value
O=C(c1cc(Cn2c(=O)[nH]c(=O)c3ccccc32)ccc1F)N1Cc2cccnc2C1	half-life	> 2 h

Now turn to the next compound.
Please give the documented half-life of O=C(c1cc(Cn2c(=O)[nH]c(=O)c3ccccc32)ccc1F)N1CCN(C(=O)C2CCCO2)CC1 (centres unmarked)
> 2 h

* * *

Test system: MDA-MB-436 cells
Experiment: Cell proliferation assay (MTS, 7 days)
Assay type: cell-based
Details: Homo sapiens, 168 h; MDA-MB-436 cells, 7 days, MTS; read-out: MDA-MB-436 cells EC50
Method: Cell Proliferation Assay: MDA-MB-436 cells were purchased from American Type Culture Collection (USA). Cells were maintained at 37° C. in a humidified atmosphere with 5% CO2. […] The proliferation of cells was measured with a 3-(4,5-dimethylthiazol-2-yl)-5-(3-carboxymethoxyphenyl)-2-(4-sulfophenyl)-2H-tetrazolium (MTS) assay using a CellTiter 96® Aqueous Non-Radioactive Cell Proliferation kit (Promega). […]
I'd appreciate it if you could supply EC50 values for the items below.

Okay, here is my list. What is EC50 for each of these?
1. CCOC(=O)N1CCN(C(=O)c2cc(Cn3c(=O)[nH]c(=O)c4ccccc43)ccc2F)CC1
2. CCNC(=O)OC1CCN(C(=O)c2cc(Cn3c(=O)[nH]c(=O)c4ccccc43)ccc2F)CC1
3. CC1(C(=O)N2CCN(C(=O)c3cc(Cn4c(=O)[nH]c(=O)c5ccccc54)ccc3F)CC2)CCCN1 (stereo in doubt)

> 10 nM
1000 to 100000 nM
> 10 nM

Please give the documented EC50 of CC1(C(=O)N2CCN(C(=O)c3cc(Cn4c(=O)[nH]c(=O)c5ccccc54)ccc3F)CC2)CCCO1 (stereo not shown)
> 10 nM
